# System: INSR
# test parameters: concentration: 1 μM, replicates: in singlicate; n = 1
parameter: %Inh (%)
Write down the numeric answer in % and omit the unit.

Example entries and their recorded answers appear below.
molecule=C[C@@H]1CCCCN1c1cc(-c2ccc3c(N)n[nH]c3c2)nc(N)n1 readout_value=6
molecule=Fc1cccc(COc2nnc(-c3ccc4c(c3)CCO4)o2)c1 readout_value=0

Moving on to another compound below.
Sample `Cc1ccc(-c2cc(-c3c[nH]nc3-c3ccccn3)ccn2)cc1` — what was its %Inh?
0

----------
# System: MAPKAPK2
# test parameters: concentration: 1 μM, replicates: in singlicate; n = 1
parameter: %Inh

Example entries and their recorded answers appear below.
compound="Cl.Oc1ccc(-c2nc(-c3ccccc3)[nH]c2-c2ccncc2)cc1 [SB-428218]" readout_value=13%
compound="Cc1c(O)cccc1Nc1ccnc2ccc(C(F)(F)F)cc12.Cl [GW466413]" readout_value=8%
compound="Cc1ccc(-c2cc(-c3c[nH]nc3-c3ccccn3)ccn2)cc1 [GW684088]" readout_value=0%
compound="CCCc1ccc(S(=O)(=O)NC2CCN(c3ccnc(Nc4ccc(F)cc4)n3)C2)cc1 (centres unmarked) [GSK1379715]" readout_value=15%

Moving on to another compound below.
Sample Cc1nnc(-c2ccc3occ(-c4ccc(S(C)=O)cc4)c3c2)[nH]1 (centres unmarked) — what was its %Inh?
0%

----------
# Tested on: SNARK;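 also: kd values determined as follow-up on hits from a single-replicate KINOMEscan panel screen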
# Construct: gene NUAK2
parameter: Kd

Value wanted: Kd (SNARK) of entry CC1=C(C(=O)Nc2cc3cn[nH]c3cc2F)C(c2ccc(C(F)(F)F)cc2)CC(=O)N1 (stereo not shown)
470 nM

----------
# System: NEK5
# test parameters: concentration: 1 μM, replicates: in singlicate; n = 1
parameter: %Inh (%)
Write down the numeric answer in % and omit the unit.

compound=Cn1ccc2ncnc(Oc3ccc(NC(=O)Nc4ccccc4)cc3)c21 readout_value=0
compound=COC(=O)c1c(-c2ccccc2)c2cc(C(=O)O)ccc2c(=O)n1Cc1ccccc1 readout_value=0

Moving on to another compound below.
Sample COc1ccccc1CNC(=O)c1cc(C(=O)c2ccccc2C)c[nH]1 [GSK364507] — what was its %Inh?
13

----------
# System: BRSK2
# test parameters: concentration: 1 μM, replicates: in singlicate; n = 1
parameter: %Inh (%)
Write down the numeric answer in % and omit the unit.

compound="COc1ccccc1-c1ccc2c(NC(=O)C3CC3)n[nH]c2n1 [SB-711239]" readout_value=2
compound="CC1=C(C(=O)Nc2cc3cn[nH]c3cc2F)C(c2ccc(C(F)(F)F)cc2)CC(=O)N1 (stereo not shown) [GSK429286]" readout_value=0
compound="COc1ccccc1CNC(=O)c1cc(C(=O)c2ccccc2C)c[nH]1 [GSK364507]" readout_value=95.2
compound="CCn1c(-c2cccnc2O)nc2cnccc21 [SB-736715]" readout_value=0
compound=Cn1ccc2ncnc(Oc3cccc(C(=O)Nc4ccccc4)c3)c21 readout_value=0

Sample Cc1c(Cn2ccn3c(=O)cc(N4CCOCC4)nc23)cccc1C(F)(F)F [GSK2289044] — what was its %Inh?
0

Now try Nc1nc(-c2nccs2)c(-c2ccnc3ccccc23)s1 [GW693542] .
0

Now try Cc1cccc(-c2cc(Nc3ccncc3)c3ccccc3n2)n1 [GSK223675] .
0

Now try Cc1c(O)cccc1Nc1ccnc2ccc(C(F)(F)F)cc12.Cl [GW466413] .
0

Now try O=C1NC(=O)C(N2CCc3ccccc32)=C1c1ccccc1Cl [SB-373598] .
9

Now try COc1ccc(Nc2nccc(NCCNC(=O)Nc3ccccc3F)n2)cc1 [GSK1379901] .
0

Now try Cc1cc(N2Cc3ccccc3C2)nc(Nc2ccc(S(=O)(=O)N3CCOCC3)cc2)n1.Cl [GSK1669917] .
0

Now try CCCc1ccc(S(=O)(=O)NC2CCN(c3ccnc(Nc4ccc(F)cc4)n3)C2)cc1 (stereo not shown) [GSK1379715] .
0

Now try `Cn1ccc2ncnc(Oc3ccc(Nc4nc5ccccc5[nH]4)cc3)c21` .
2

Now try `CC(C)(C)c1ccc(C(=O)Nc2cn3cc(-c4cccnc4)ccc3n2)cc1` .
25

Now try CCn1c(-c2ccccn2)nc2cnccc21 [SB-736398] .
0

Now try `CC(C)(C)c1ccc(C(=O)Nc2cn3cc(Cl)ccc3n2)cc1` .
0

Now try `Cc1cccc(-c2nc(-c3ccc(S(C)(=O)=O)cc3)sc2-c2ccnc(NCCc3ccccc3)c2)c1` .
0

Now try COc1cc2ncnc(Nc3ccc4nc(-c5ccccc5)[nH]c4c3)c2cc1OC.Cl [GW282450] .
0

----------
# Tested on: PRKCH
# test parameters: concentration: 1 μM, replicates: in singlicate; n = 1
# Lookup of reported %Inh keyed by entry
Write down the numeric answer in % and omit the unit.

Sample COc1cc(Nc2nccc(N3CCC(NC(=O)Nc4cc(C)ccc4C)C3)n2)cc(OC)c1OC (stereo not drawn) — what was its %Inh?
7

Now try `Fc1cc(Cl)ccc1Nc1ccnc2cc(-c3ccc(CN4CCCCC4)o3)ccc12` .
0

Now try `COc1cc2nccc(Nc3ccc(NC(=O)c4ccc(C)cc4)c(O)c3)c2cc1OC.Cl` .
17

----------
# Test system: PRKX
# test parameters: concentration: 1 μM, replicates: in singlicate; n = 1
# Lookup of reported %Inh keyed by entry
Write down the numeric answer in % and omit the unit.

Example entries and their recorded answers appear below.
molecule="COc1cccc(NC(=O)NC2CCN(c3ccnc(Nc4ccc(F)cc4)n3)C2)c1 (stereo not shown)" result_unit=% readout_value=21
molecule="COc1cc(Nc2nccc(N3CCC(NC(=O)Nc4cc(C)ccc4C)C3)n2)cc(OC)c1OC (stereo not shown)" result_unit=% readout_value=41
molecule=Cc1cc(-c2ccc3c(c2)CC[C@@H](N[C@@H](C)c2ccccc2)C3)cnc1N.Cl result_unit=% readout_value=12

Sample `COc1ccccc1-c1ccc2c(NC(=O)C3CC3)n[nH]c2n1` — what was its %Inh?
25

Now try `Cc1ccc(C(=O)Nc2ccc(Nc3ccnc4cc(-c5ccccn5)ccc34)cc2O)cc1.Cl` .
9

Now try `O=C(Nc1n[nH]c2cc(-c3cccc(F)c3F)ccc12)C1CC1` .
0

Now try `Cc1cccc(-c2nc(Nc3cccc(C(N)=O)c3)c3ccccc3n2)n1` .
0

Now try `Cc1cccc(-c2nc(C)cc(Nc3ccncc3)n2)n1` .
1

Now try `Clc1cc(Cl)cc(Nc2ccnc(Nc3cc(Cl)cc(Cl)c3)n2)c1` .
10

Now try Cc1nnc(-c2ccc3occ(-c4ccc(S(C)=O)cc4)c3c2)[nH]1 (stereo not shown) .
51

Now try `Cc1cccc(-c2nc(Nc3ccc4[nH]ncc4c3)c3ccccc3n2)n1` .
0

Now try `CS(=O)(=O)c1ccc(-c2nc3n(c2-c2ccncc2)CCC3)cc1` .
2

Now try O=C(Nc1ccc2c(c1)OCO2)NC1CCN(c2ccnc(Nc3ccc(F)cc3)n2)C1 (stereo not shown) .
0

Now try `O=C(Nc1n[nH]c2nc(-c3nccs3)c(Br)cc12)C1CC1` .
0

Now try COc1ccc(CNC(=O)NC2CCN(c3ccnc(Nc4cc(OC)c(OC)c(OC)c4)n3)C2)cc1 (stereo not shown) .
17

Now try `CCn1c(-c2ccccn2)nc2cnccc21` .
100

Now try `NC(=O)c1nnc2ccccc2c1N` .
1

Now try `COc1ccc(Nc2nccc(-c3cccc(NC(=O)c4cc5cc(F)ccc5[nH]4)c3)n2)cc1` .
46

Now try `COc1ccc(C2=C(Nc3cccc(C(=O)O)c3)C(=O)NC2=O)cc1` .
0

Now try `Cc1c(Cn2ccn3c(=O)cc(N4CCOCC4)nc23)cccc1C(F)(F)F` .
25

----------
# Test system: GRK7
# test parameters: concentration: 1 μM, replicates: in singlicate; n = 1
parameter: %Inh (%)
Write down the numeric answer in % and omit the unit.

compound="CCCc1ccc(S(=O)(=O)NC2CCN(c3ccnc(Nc4ccc(F)cc4)n3)C2)cc1 (stereo not drawn)" result_unit=% readout_value=0

Sample `CCn1c(-c2cccnc2O)nc2cnccc21` — what was its %Inh?
0

Now try Cc1nnc(-c2ccc3occ(-c4ccc(S(C)=O)cc4)c3c2)[nH]1 (stereo not drawn) .
6

----------
# Test system: SRC
# test parameters: concentration: 1 μM, replicates: in singlicate; n = 1
parameter: %Inh (%)
Write down the numeric answer in % and omit the unit.

Example entries and their recorded answers appear below.
compound="Fc1cc(Cl)ccc1Nc1ccnc2cc(-c3ccc(CN4CCCCC4)o3)ccc12 [GW560116]" readout_value=90.8
compound="Cc1cccc(-c2nc(Nc3ccc4[nH]ncc4c3)c3ccccc3n2)n1 [GW857175]" readout_value=28
compound=NC(=O)c1nnc2ccccc2c1N readout_value=6

Moving on to another compound below.
Sample CCn1c(-c2ccccn2)nc2cnccc21 [SB-736398] — what was its %Inh?
79

----------
# Tested on: MRCKA
# test parameters: concentration: 1 μM, replicates: in singlicate; n = 1
# Lookup of reported %Inh keyed by entry
Write down the numeric answer in % and omit the unit.

Example entries and their recorded answers appear below.
compound=CS(=O)(=O)c1ccc(-c2nc3n(c2-c2ccncc2)CCC3)cc1 measurement_target=MRCKA readout_value=14
compound=Cl.O=C(Nc1cccc(-c2nn3ncccc3c2-c2ccnc(Nc3cccnc3)n2)c1)c1c(F)cccc1F measurement_target=MRCKA readout_value=1
compound="O=C(Nc1ccc2c(c1)OCO2)NC1CCN(c2ccnc(Nc3ccc(F)cc3)n2)C1 (stereo not shown)" measurement_target=MRCKA readout_value=2

Moving on to another compound below.
Sample `COc1ccc(Nc2nccc(-c3cccc(NC(=O)c4cc5cc(F)ccc5[nH]4)c3)n2)cc1` — what was its %Inh?
27
